- Tested on: HCC-2998 colon
- PROTOCOL_NOTES: NCI-60 one-dose screen, 48 h
- CONDITION_SET: 10 µM unless noted
This is part of a sample that, as a whole, favours compounds with a hit. Of some 83,000 tested, about 20% had one in any assay. Calls of active or inactive are those of the source. Rule for the calls: active = growth percent below 10; inactive = the rest.
Outcome codes: Yes for active, No for inactive

SMILES_NOTATION	CLASS_LABEL
CC(=O)C1=C(O)C=C2Oc3c(C(=O)/C=C/c4cc(C(F)(F)F)cc(C(F)(F)F)c4)c(O)c(C)c(O)c3[C@]2(C)C1=O	Yes
C/C(=C(/c1ccc(O)cc1)c1ccc(OCCN(C)C)cc1)c1ccccc1	No
C=C1C(=O)O[C@H]2[C@H]1CC/C(Cn1cc(Cn3ccc4cc(Cl)ccc43)nn1)=C\CC[C@@]1(C)O[C@@H]21	No
CN1CCN(Cc2ccc(NC(=O)c3[nH]ncc3Nc3ncnc4sccc34)cc2)CC1	Yes
C#Cc1nc2ccccc2c(=O)[nH]1	Yes

====

Overview of reported growth across a group of compounds:
- Tested on: DU-145 prostate
- PROTOCOL_NOTES: NCI-60 one-dose screen, 48 h (100 = growth as untreated, 0 = no growth, -100 = all killed)
- CONDITION_SET: 10 µM unless noted
- Experimental: Cells are grown in 96 well plates and exposed to the test compound for 48 hours. Compounds are tested at a single concentration, which is 10^-5 M for most compounds. The reported endpoint is percent growth (GI% or GIPRCNT), where numbers from 0 - 100% represent growth inhibition, and numbers from -100% - 0 represent cell death. For example, a value of 40 represents 60% growth inhibition. A value of 0 means no net growth occurred over the course of the experiment. […]
Compounds without any hit were thinned out: in the full panel of roughly 83,000, 20% have a hit.
PARAMETER_MEASURED: growth (%)

SMILES_NOTATION	TESTED_SYSTEM	DATA_VALUE
Cc1nn(-c2ccccc2)c2nc(C)n(-c3ccc(Br)cc3)c(=O)c12	DU-145 prostate	8.77
CC(=O)C1=C(O)C=C2Oc3c(C(=O)/C=C/c4cc(C(F)(F)F)cc(C(F)(F)F)c4)c(O)c(C)c(O)c3[C@]2(C)C1=O	DU-145 prostate	-71.4
CCCCCCCCCCNC(=O)CCl	DU-145 prostate	91.1
Cc1ccc2cnc(N)c(C#Cc3cncc(C(=O)Nc4ccc(CN5CCN(C)CC5)c(C(F)(F)F)c4)c3)c2c1	DU-145 prostate	-95.8
COc1ccc2nc3cc(Cl)ccc3c(N3CCN(c4ccnc(N5CCOCC5)n4)CC3)c2c1	DU-145 prostate	24.2

====

- Tested on: 786-0 renal
- PROTOCOL_NOTES: NCI-60 one-dose screen, 48 h (100 = growth as untreated, 0 = no growth, -100 = all killed)
- CONDITION_SET: 10 µM unless noted
The panel holds about 83,000 compounds, 20% with a hit somewhere; the sample as a whole holds those more often.
Class (by growth) -- group 1 (below 20%), group 2 (20% to below 90%), group 3 (90% or more)

MOLECULE	CLASS_LABEL
CCCCCCCCCCCCN1CCCC(C)C1 (centres undefined)	group 2
COC1C/C(=N\O)C2OC(c3ccccc3)OCC2O1 (centres undefined)	group 3
CN1CCCCC1CCN1c2ccccc2Sc2ccc(Br)cc21 (centres undefined)	group 2
C=C1C(=O)O[C@H]2[C@H]1CC/C(Cn1cc(Cc3c[nH]c4ccccc34)nn1)=C\CC[C@@]1(C)O[C@@H]21	group 1
CCN(CC)c1ccc(/C=C/C2=[N+](C)c3ccccc3C2(C)C)cc1	group 1
COc1ccc(C/C(C)=C(\c2ccc(OCCN3CCCCCC3)cc2)c2ccc(OC(=O)C3CCCCC3)cc2)cc1	group 2
CC1=C(C)C(=O)OC([C@](C)(O)[C@]2(O)CC[C@@]3(O)[C@@H]4C[C@H]5O[C@]56CC=CC(=O)[C@]6(C)[C@H]4CC[C@]23COC(=O)c2ccc(C)o2)C1 (some centres undefined)	group 1
C=C1CC[C@@H]2[C@](C)(COC(C)=O)[C@H](OC(C)=O)CC[C@@]2(C)[C@@H]1CC(Nc1ccc(S(=O)(=O)Nc2nc(C)cc(C)n2)cc1)C1=CCOC1=O (some centres undefined)	group 3
CN(C)c1ccc(/C=C\C2=[N+](C)c3ccccc3C2(C)C)cc1	group 1
Nc1c(C(=O)Nc2ccccc2)sc2nc3c(cc12)CN(CCc1ccccc1)CC3	group 3
COc1cnc2c(c1)C(=O)c1c-2n(CCCN2CCCC2)c(=O)c2cc([N+](=O)[O-])ccc12	group 1
COC(=O)[C@H](C(C)C)n1c(=O)c2cc(OC)c(OC)cc2c2cnc3[nH]ccc3c21	group 2
COc1ccc(Cl)cc1Nc1nc(C(F)(F)F)ccc1C(=O)N/N=C/c1cccnc1	group 1
CC1=C(NCCN2CCCC2)C(=O)c2c(OCc3ccc(F)c(Cl)c3)cccc2C1=O	group 2
CCCCCCCCCCCCCCCC[N+]1(CC)CCCC1	group 1

====

Each entry below lists one item and its recorded growth value.
- System: PC-3 prostate
- PROTOCOL_NOTES: NCI-60 one-dose screen, 48 h (100 = growth as untreated, 0 = no growth, -100 = all killed)
- CONDITION_SET: 10 µM unless noted
About 83,000 compounds went through this panel and 20% of them were active in at least one assay; those are over-represented in the sample as a whole.

MOLECULE	growth [%]
CCC(c1ccccc1)C(CC)c1ccc(O)c(O)c1 (stereo unspecified)	92.7
Cc1[nH]n(-c2ccccc2)c2nc3nncc3c(-c3ccc(Cl)cc3)c12	73.1
CCOC(=O)C(=Cc1ccccc1F)C(=O)OCC	87.6
CCN(CC)CC(O)c1cc(-c2ccc(Cl)cc2)nc2c(C)c(Cl)ccc12 (stereo unspecified)	-68.4
CCOC(=S)SCc1ccc(Cl)cc1	81.7
COc1ccc(C(=O)c2sc3nc4c(cc3c2N)CCCC4)cc1OC	50.8
CN(C)c1ccc(/C=C(\C#N)c2nc3ccccc3s2)cc1	105
CCOC(=O)C(CC)n1c(=O)c2cc(OC)c(OC)cc2c2cnc3[nH]ccc3c21 (stereo unspecified)	57.1
COc1ccc2nc3cc(Cl)ccc3c(NCCNCC(O)CO)c2c1 (stereo unspecified)	21.4
C/C(Cc1ccc(Cl)cc1)=C(\c1ccc(OCCN2CCCCCC2)cc1)c1ccc(OC(=O)C2CCCCC2)cc1	51.5
C=C(CN1CCN(c2cccc(C(F)(F)F)n2)CC1)c1ccc(C(=O)Nc2ccccc2N)cc1	22.6

====

- Test system: MALME-3M melanoma
- PROTOCOL_NOTES: NCI-60 one-dose screen, 48 h (100 = growth as untreated, 0 = no growth, -100 = all killed)
- CONDITION_SET: 10 µM unless noted
About 83,000 compounds went through this panel and 20% of them were active in at least one assay; those are over-represented in the sample as a whole.
Attribute: growth

COMPOUND	UNIT_SYMBOL	growth
COc1cc2cc(COc3nccc(-c4ccc(Cl)cc4)n3)c(=O)[nH]c2cc1OC	%	45.7
Cc1ccc(S(=O)(=O)N(CCc2ccc(Cl)cc2)S(=O)(=O)c2ccc(C)cc2)cc1	%	93
COCCCNc1nc(NC(=O)c2ccc(F)cc2C)cc(-c2cccnc2)n1	%	107
COCCOc1ccc(-c2nc3ccc(-c4nc5ccc(N6CCN(C)CC6)cc5[nH]4)cc3[nH]2)cc1	%	-38.9
CN1/C(=C\C=C\C2=[N+](C)c3ccccc3C2(C)C)C(C)(C)c2ccccc21	%	-9.73
O=C1Nc2ccccc2C12CC(c1ccc(Cl)cc1)=NN2 (stereo not given)	%	105
CCOC(=O)c1nc(Nc2cc(C)[nH]n2)c2ccccc2n1	%	116
O=C1/C(=C\c2cn(C(=O)c3ccc(Cl)cc3)c3ccccc23)c2ccccc2N1c1c(Cl)cccc1Cl	%	106
CCCC(=O)Oc1ccc(/C(=C(/CC)Cc2ccccc2)c2ccc(OCCN3CCCC3)cc2)cc1	%	91.4
O=C1Nc2ccccc2C12CC(c1ccccc1)=NN2 (stereo not given)	%	40.1

====

- Test system: SW-620 colon
- PROTOCOL_NOTES: NCI-60 one-dose screen, 48 h (100 = growth as untreated, 0 = no growth, -100 = all killed)
- CONDITION_SET: 10 µM unless noted
About 83,000 compounds went through this panel and 20% of them were active in at least one assay; those are over-represented in the sample as a whole.
Quick reference: growth of the listed items.
PARAMETER_MEASURED: growth (%)

MOLECULE	PARAMETER_MEASURED	DATA_VALUE
COc1ccc(/C=C2\N=C3SC=C(N)N3C2=O)cc1	growth	21.9
C=C1CC2(OC1=O)C(=O)N(CCCCCCCCCCCCN1C(=O)C3(CC(=C)C(=O)O3)c3ccccc31)c1ccccc12 (stereo unspecified)	growth	26.1
CCCCN(CC)CCCCCCCCCCN1CCCc2cc(OC)ccc21	growth	22.7
CN(C)c1ccc(/C=C\C2=[N+](C)c3ccccc3C2(C)C)cc1	growth	10.3
COC1C/C(=N\O)C2OC(c3ccccc3)OCC2O1 (stereo unspecified)	growth	105
CCOC(=O)C(C#N)C1CCCCC1 (stereo unspecified)	growth	106
CC/C=C\C[C@H](O)C/C=C1/C(=O)C=C[C@@H]1C/C=C\CCCC(=O)NC	growth	7.47
O=C(N/N=C/c1ccc(O)cc1O)c1cccnc1	growth	44.6
CCN(CC)CCC(=O)c1ccc(OC)c2ccccc12	growth	93
CC/C=C\C[C@H](O)C/C=C1/C(=O)C=C[C@@H]1C/C=C\CCCC(=O)OC(C)C	growth	0.553
COc1cc2cc(COc3nccc(-c4ccc(Cl)cc4)n3)c(=O)[nH]c2cc1OC	growth	36.5
O=C(/C=C/c1ccc(B(O)O)cc1)/C=C/c1ccc(B(O)O)cc1	growth	-25.2
C[C@@H]1CC[C@@H]2[C@@H]1[C@H](OC(=O)/C=C/c1ccccc1)[C@]1(c3ccccc3)C[C@@H](OC(=O)CO)[C@@]2(C)O1	growth	96.6
CCOC(=O)c1c2c(n3ccc(NC(=O)CCN(CC)CC)cc13)C(=O)c1ncccc1C2=O	growth	49.3
COC(=O)C12C3C(=O)N(c4ccc(OC)cc4)C(=O)C3C(c3cn(-c4ccccc4)nc3C)N1[C@H](c1cn(-c3ccccc3)nc1C)[C@@H]1C(=O)N(c3ccc(OC)cc3)C(=O)[C@@H]12 (stereo partly specified)	growth	100
Cc1[nH]n(-c2ccccc2)c2nc3nncc3c(-c3ccc(Cl)cc3)c12	growth	93.3
CC/C(Cc1ccccc1)=C(/c1ccc(O)cc1)c1ccc(OCCN2CCCC2)cc1	growth	-78.4
O=C1C(Cl)=C(Cl)C(=O)c2c1nc1n2CCCC1	growth	81.6
Cc1ccc(N)cc1F	growth	107
Cn1c2ccccc2c2c3[nH]c(=O)[nH]c(=O)c3c3c4ccccc4n(C)c3c21	growth	33.1
c1ccc(Sc2ncnc3ccccc23)cc1	growth	84.9
